Recorded measurements of EC90, one per entry
- Test system: HPV-11
- protocol_text: Low risk HPV assay: HPV origin plasmid replication in HEK 293 cells (qPCR)
- Assay type: cell-based, human papillomavirus
- details: Human papillomavirus, HEK293; Antiviral activity against HPV-11 in HEK-293 cells; read-out: EC90
observable: EC90 (nM)

CCCCCCCCCCCCCCCCCCOCCOP(=O)(COCCn1cnc2c(=O)[nH]c(N)nc21)OCc1cccc(F)c1 (stereo not shown); 1590
CCCCCCCCCCCCCCCCCCOCCOP(=O)(COCCn1cnc2c(=O)[nH]c(N)nc21)OCc1ccc(C)cc1 (stereo not shown); 7000
CCCCCCCCCCCCCCCCCCOCCOP(=O)(COCCn1cnc2c(=O)[nH]c(N)nc21)OCc1ccc(OC)c(F)c1 (stereo not shown); 990
CCCCCCCCCCCCCCCCCCOCCOP(=O)(COCCn1cnc2c(=O)[nH]c(N)nc21)OCc1ccc(OC)c(Cl)c1 (stereo not shown); 1340

---

Recorded measurements of CC50 at 7 d, one per entry
- protocol_text: Cytotoxicity assay in primary human foreskin fibroblast cells (CELLTITER-GLO)
- Format: cell-based
- details: primary human foreskin fibroblast (HFF) cells, Table 3, CELLTITER-GLO, 7 d incubation
observable: CC50 at 7 d (µM)

CCCCCCCCCCCCCCCCCCOCCOP(=O)(COCCn1cnc2c(=O)[nH]c(N)nc21)OCc1cccc(Cl)c1 (stereo not shown) [ODE-(3-Cl-Bn)-PMEG]; 4.65
CCCCCCCCCCCCCCCCCCOCCOP(=O)(COCCn1cnc2c(=O)[nH]c(N)nc21)OCc1cccc(F)c1 (stereo not shown) [ODE-(3-F-Bn)-PMEG]; 6.88
CCCCCCCCCCCCCCCCCCOCCOP(=O)(COCCn1cnc2c(=O)[nH]c(N)nc21)OCc1ccc(C)cc1 (stereo not shown) [ODE-(4-Me-Bn)-PMEG]; 6.02
CCCCCCCCCCCCCCCCCCOCCOP(=O)(COCCn1cnc2c(=O)[nH]c(N)nc21)OCc1ccc(OC)c(Cl)c1 (stereo not shown) [ODE-(3-Cl-4-OMe-Bn)-PMEG]; 2.27
CCCCCCCCCCCCCCCCCCOCCOP(=O)(COCCn1cnc2c(=O)[nH]c(N)nc21)OCc1ccc(OC)c(F)c1 (stereo not shown) [ODE-(3-F-4-OMe-Bn)-PMEG]; 1.72

---

- Test system: HPV-11
- protocol_text: Low risk HPV assay: HPV origin plasmid replication in HEK 293 cells (qPCR)
- Type: cell-based, human papillomavirus
- details: Human papillomavirus, HEK293
pEC50: −log10 of the molar value.
observable: pEC50

CCOC(=O)[C@H](C)NP(=O)(COCCn1cnc2c(=O)[nH]c(N)nc21)Oc1ccccc1 (stereo partly shown) [PMEG phenoxy amidate]; 5.12

---

- protocol_text: Cytotoxicity assay in HEK-293 cells (CELLTITER-GLO)
- Format: cell-based
- details: human, HEK-293 cells; Table 3, CELLTITER-GLO, 2 d incubation
observable: CC50 at 2 d (µM)

CCCCCCCCCCCCCCCCCCOCCOP(=O)(COCCn1cnc2c(=O)[nH]c(N)nc21)OCc1ccc(OC)c(Cl)c1 (stereo not drawn) [ODE-(3-Cl-4-OMe-Bn)-PMEG]; 8.87
CCCCCCCCCCCCCCCCCCOCCOP(=O)(COCCn1cnc2c(=O)[nH]c(N)nc21)OCc1ccc(OC)c(F)c1 (stereo not drawn) [ODE-(3-F-4-OMe-Bn)-PMEG]; 13.1

---

- System: HPV-11
- protocol_text: Low risk HPV assay: HPV origin plasmid replication in HEK 293 cells (qPCR)
- Format: cell-based, human papillomavirus
- details: Human papillomavirus, HEK293; low risk HPV (HPV-11), HEK 293 cells, 48 h incubation; read-out: EC50 Low Risk
- Procedure: An origin-containing low risk or high risk HPV plasmid was co-transfected with homologous E1 and E2 protein expression vectors into HEK 293 cells. At 4 h post-transfection, cells were treated with test compound dilutions and then incubated for 48 h. HPV origin plasmid replication was detected after digestion with DpnI and exonuclease III to remove unreplicated transfected plasmids. Remaining replicated DNA was quantified by quantitative real time PCR (qPCR). […]
pEC50: −log10 of the molar value.
observable: pEC50

CCCCCCCCCCCCCCCCCCOCC(COP(=O)(O)COCCn1cnc2c(=O)[nH]c(N)nc21)OCc1ccccc1 (stereo not shown); 5.51 to 6.52

---

- protocol_text: Cytotoxicity assay in HEK-293 cells (CELLTITER-GLO)
- Assay type: cell-based
- details: human; Table 3, CELLTITER-GLO, 2 d incubation
- Experimental: An origin-containing low risk or high risk HPV plasmid was co-transfected with homologous E1 and E2 protein expression vectors into HEK 293 cells. At 4 h post-transfection, cells were treated with test compound dilutions and then incubated for 48 h. HPV origin plasmid replication was detected after digestion with DpnI and exonuclease III to remove unreplicated transfected plasmids. Remaining replicated DNA was quantified by quantitative real time PCR (qPCR). […]
observable: CC50 at 2 d

CCOC(=O)[C@H](C)NP(=O)(COCCn1cnc2c(=O)[nH]c(N)nc21)Oc1ccccc1 (stereo partly shown) [PMEG phenoxy amidate]; > 100 µM

---

- protocol_text: Cytotoxicity assay in HEK-293 cells (CELLTITER-GLO)
- Type: cell-based
- details: human; Table B, HEK-293 cells, parallel to HPV-11 antiviral assay
Recorded measurements of log10 of CC50 at 48 h, one per entry
observable: log10 of CC50 at 48 h (log10 of the value in µM)

CCCCCCCCCCCCCCCCCCOCCOP(=O)(COCCn1cnc2c(=O)[nH]c(N)nc21)OCc1ccc(OC)c(F)c1 (centres unmarked) [ODE-(3-F-4-OMe-Bn)-PMEG]; 1.15
CCCCCCCCCCCCCCCCCCOCCOP(=O)(COCCn1cnc2c(=O)[nH]c(N)nc21)OCc1ccc(C)cc1 (centres unmarked) [ODE-(4-Me-Bn)-PMEG]; 1.38
CCCCCCCCCCCCCCCCCCOCCOP(=O)(COCCn1cnc2c(=O)[nH]c(N)nc21)OCc1cccc(F)c1 (centres unmarked) [ODE-(3-F-Bn)-PMEG]; 0.24
CCCCCCCCCCCCCCCCCCOCCOP(=O)(COCCn1cnc2c(=O)[nH]c(N)nc21)OCc1ccc(OC)c(Cl)c1 (centres unmarked) [ODE-(3-Cl-4-OMe-Bn)-PMEG]; 0.92
CCCCCCCCCCCCCCCCCCOCCOP(=O)(COCCn1cnc2c(=O)[nH]c(N)nc21)OCc1cccc(Cl)c1 (centres unmarked) [ODE-(3-Cl-Bn)-PMEG]; 0.05

---

- protocol_text: Cytotoxicity assay in HEK-293 cells (CELLTITER-GLO)
- Format: cell-based
- details: human, HEK-293 cells; Table 3, CELLTITER-GLO, 2 d incubation
Recorded measurements of CC50 at 2 d, one per entry
observable: CC50 at 2 d (nM)

CCCCCCCCCCCCCCCCCCOCCOP(=O)(COCCn1cnc2c(=O)[nH]c(N)nc21)OCc1ccc(C)cc1 (stereo not shown); 32000
CCCCCCCCCCCCCCCCCCOCCOP(=O)(COCCn1cnc2c(=O)[nH]c(N)nc21)OCc1cccc(Cl)c1 (stereo not shown); 1000
CCCCCCCCCCCCCCCCCCOCCOP(=O)(COCCn1cnc2c(=O)[nH]c(N)nc21)OCc1cccc(F)c1 (stereo not shown); 2160

---

Recorded measurements of EC90, one per entry
- System: HPV-11
- protocol_text: Low risk HPV assay: HPV origin plasmid replication in HEK 293 cells (qPCR)
- Type: cell-based, human papillomavirus
- details: Human papillomavirus, HEK293; Antiviral activity against HPV-11 in HEK-293 cells; read-out: EC90
observable: EC90

Nc1ccn(C[C@@H](CO)OCP(=O)(O)O)c(=O)n1 [Cidofovir, cidofovir, reference compound]; > 300 µM
CCOC(=O)[C@H](C)NP(=O)(COCCn1cnc2c(=O)[nH]c(N)nc21)N[C@@H](C)C(=O)OCC [PMEG bisamidate]; > 100 µM
CCCCCCCCCCCCCCCCCCOCCOP(=O)(COCCn1cnc2c(=O)[nH]c(N)nc21)OCc1cccc(Cl)c1 (stereo not drawn) [ODE-(3-Cl-Bn)-PMEG]; > 0.4 µM

---

- protocol_text: Cytotoxicity assay in HEK-293 cells (CELLTITER-GLO)
- Assay type: cell-based
- details: human; Table B, HEK-293 cells, parallel to HPV-11 antiviral assay
observable: CC50 at 48 h

CCOC(=O)[C@H](C)NP(=O)(COCCn1cnc2c(=O)[nH]c(N)nc21)N[C@@H](C)C(=O)OCC [PMEG bisamidate]; > 100 µM
CCOC(=O)[C@H](C)NP(=O)(COCCn1cnc2c(=O)[nH]c(N)nc21)Oc1ccccc1 (stereo partly drawn) [PMEG phenoxy amidate]; > 100 µM
Nc1ccn(C[C@@H](CO)OCP(=O)(O)O)c(=O)n1 [Cidofovir, cidofovir, reference compound]; > 300 µM
